Data origin, for the record: patent US11541041B1

Catalogue of compounds with associated inhibition at 20 µM
- MEASURED_TARGET: KRas wild type (Homo sapiens (Human), UniProt P01116)
- Sequence (P01116-2 other isoform, or with tags, fused parts or gaps): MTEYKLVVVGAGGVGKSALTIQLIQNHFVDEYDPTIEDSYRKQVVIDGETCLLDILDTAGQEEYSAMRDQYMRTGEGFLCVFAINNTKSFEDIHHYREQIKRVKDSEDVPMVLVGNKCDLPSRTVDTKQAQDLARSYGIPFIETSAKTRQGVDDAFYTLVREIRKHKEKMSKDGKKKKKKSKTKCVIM
- ASSAY_NAME: Ras GTP binding domain inhibition assay
- DETAILS: 20 μM compound

COMPOUND | inhibition at 20 µM
Cc1cccc(-c2c(C)sc3c(O)nc(-c4nccn4C)nc23)c1 | 1 to 25%
COCCOc1nc(-c2ccncn2)nc2sc(-c3ccccc3)c(-c3ccccc3)c12 | 1 to 25%
O=C(CCCc1cccnc1)N1CCCc2c(O)nc(C3C=CC=CN3)nc21 (centres unmarked) | 25 to 50%
Nc1nc(-c2ccccn2)nc2c(C3CC3)csc12 | 25 to 50%

Read the next record carefully.
Item: Cc1ccc(-c2csc3c(O)nc(-c4nccn4C)nc23)c(F)c1 Test system: KRas wild type (Homo sapiens (Human), UniProt P01116) Read-out: inhibition at 20 µM Value: ?
1 to 25%
